- Test system: vancomycin-resistant Enterococcus (VRE)
- ASSAY PROTOCOL: agar dilution method, inhibitory effect on VRE
- Type: cell-based
- STATED CONDITIONS: Enterococcus, read-out: Minimum inhibitory concentration (MIC50, μg/ml) VRE
PROPERTY NAME: MIC50 (µg/mL)

In the examples that follow, each entry is paired with its recorded MIC50.
CCn1nnc(-c2ccc(-c3ccc(N4C[C@@H](C(O)CF)OC4=O)cc3F)cn2)n1.O=P(O)(O)O (stereo partly shown) ... 0.2
CCCn1nnc(-c2ccc(-c3ccc(N4C[C@H](C(O)C5CC5)OC4=O)cc3F)cn2)n1.O=P(O)(O)O (stereo partly shown) ... 0.2
CCn1nnc(-c2ccc(-c3ccc(N4C[C@H](CO)OC4=O)cc3F)cn2)n1.O=P(O)(O)O ... 1.5
C=Cn1nnc(-c2ccc(-c3ccc(N4C[C@@H](C(O)C5CC5)OC4=O)cc3F)cn2)n1.O=P(O)(O)O (stereo partly shown) ... 0.4
CCCn1nnc(-c2ccc(-c3ccc(N4C[C@H](C(O)CF)OC4=O)cc3F)cn2)n1.O=P(O)(O)O (stereo partly shown) ... 0.2

1. CC(O)[C@H]1CN(c2ccc(-c3ccc(-c4nnn(C5CC5)n4)nc3)c(F)c2)C(=O)O1.O=P(O)(O)O (stereo partly shown)
2. CCC(O)[C@@H]1CN(c2ccc(-c3ccc(-c4nnn(CC)n4)nc3)c(F)c2)C(=O)O1.O=P(O)(O)O (stereo partly shown)
3. CCCn1nnc(-c2ccc(-c3ccc(N4C[C@@H](C(C)O)OC4=O)cc3F)cn2)n1.O=P(O)(O)O (stereo partly shown)
Incoming: I would appreciate it if you could sort these 3 compounds by MIC50, starting from the smallest number. Give the labels in the order specified.
Outgoing: 1, 2, 3
(1: 0.2 µg/mL, 2: 0.3 µg/mL, 3: 1.2 µg/mL)

I. CCn1nnc(-c2ccc(-c3ccc(N4C[C@@H](C(O)F)OC4=O)cc3F)cn2)n1.O=P(O)(O)O (stereo partly shown)
II. CCn1nnc(-c2ccc(-c3ccc(N4C[C@H](C(O)CF)OC4=O)cc3F)cn2)n1.O=P(O)(O)O (stereo partly shown)
Incoming: From the items above, decide which of I and II has the lower MIC50 reading. Choose, then provide that item's label.
Outgoing: I
(I: 0.2 µg/mL, II: 0.3 µg/mL)

a. CCn1nnc(-c2ccc(-c3ccc(N4C[C@@H](C(C)O)OC4=O)cc3F)cn2)n1.O=P(O)(O)O (stereo partly shown)
b. CCCn1nnc(-c2ccc(-c3ccc(N4C[C@@H](C(O)F)OC4=O)cc3F)cn2)n1.O=P(O)(O)O (stereo partly shown)
c. C=Cn1nnc(-c2ccc(-c3ccc(N4C[C@@H](C(O)F)OC4=O)cc3F)cn2)n1.O=P(O)(O)O (stereo partly shown)
Incoming: I would appreciate it if you could sort these 3 compounds by MIC50, starting from the smallest number. Give the labels in the order specified.
Outgoing: b, c, a
(b: 0.2 µg/mL, c: 0.7 µg/mL, a: 1.5 µg/mL)

a. CCn1nnc(-c2ccc(-c3ccc(N4C[C@@H](CO)OC4=O)cc3F)cn2)n1.O=P(O)(O)O
b. O=C1O[C@H](C(O)C2CC2)CN1c1ccc(-c2ccc(-c3nnn(C4CC4)n3)nc2)c(F)c1.O=P(O)(O)O (stereo partly shown)
c. Cn1nnc(-c2ccc(-c3ccc(N4C[C@@H](C(O)F)OC4=O)cc3F)cn2)n1.O=P(O)(O)O (stereo partly shown)
d. CC(O)[C@@H]1CN(c2ccc(-c3ccc(-c4nnn(C5CC5)n4)nc3)c(F)c2)C(=O)O1.O=P(O)(O)O (stereo partly shown)
e. C=Cn1nnc(-c2ccc(-c3ccc(N4C[C@H](C(O)CF)OC4=O)cc3F)cn2)n1.O=P(O)(O)O (stereo partly shown)
Incoming: Arrange by MIC50, high to low. Give the labels in the order specified.
Outgoing: a, c, d, b, e
